Assay comment: cAMP Responsive Elements (CRE) small molecule antagonists, cell-based qHTS assay: qHTS cell viability counter screen (AID 2060913); also: % is scaled to controls: 0 for no effect and ±100 for the full control effect; nearly all actives have a fitted effect of over 40% in size
Assay conditions: CRE-bla HEK293T viability, CellTiter-Glo luminescence, 5 h; series mostly up to 92.4 µM
Inconclusive results are not listed. Calls of active or inactive are those of the source. Calls follow the shape of the dose curve; as a rule, active = well fitted cell-killing curve with a large enough effect in the repeat runs; inconclusive = weak or mixed curves, or effect the other way; inactive = flat fitted curve, though single readings scatter.
Metric: viability change, negative = cytotoxic

In the examples that follow, each entry is paired with its recorded viability change, negative = cytotoxic.
Compound	Metric	Assay result
NC(=O)c1ccccc1N	viability change, negative = cytotoxic	inactive
C/C(=C(\CCOP(=O)(O)O)SC(=O)c1ccccc1)N(C=O)Cc1cnc(C)nc1N	viability change, negative = cytotoxic	1.04% [at 8.39 µM] (inactive)
CCCC(C)CC (stereo not drawn)	viability change, negative = cytotoxic	inactive
CC(CN(CCN(CC(C)OCCO)CC(C)OCCO)CC(C)OCCO)OCCO (stereo not drawn)	viability change, negative = cytotoxic	inactive
O=S(=O)(O)c1ccc(O)cc1	viability change, negative = cytotoxic	inactive

Look up viability change, negative = cytotoxic: c1ccc(C(O[C@H]2CCCN(CCc3ccc4c(c3)OCO4)C2)c2ccccc2)cc1
inactive

Look up viability change, negative = cytotoxic: C=CC/C=C/C
inactive

Look up viability change, negative = cytotoxic: CCCCNc1cc(C(=O)O)cc(S(N)(=O)=O)c1Oc1ccccc1
inactive

Look up viability change, negative = cytotoxic: O=C(N[C@H](CO)[C@H](O)c1ccc([N+](=O)[O-])cc1)C(Cl)Cl
inactive

Look up viability change, negative = cytotoxic: CCCCN(C)C
inactive

Look up viability change, negative = cytotoxic: O=C(CCCN1CCN(c2ccccn2)CC1)c1ccc(F)cc1
inactive

Look up viability change, negative = cytotoxic: CO/N=C(\C(=O)N[C@@H]1C(=O)N2C(C(=O)O)=C(CSc3nc(=O)c(O)nn3C)CS[C@H]12)c1csc(N)n1
inactive

Look up viability change, negative = cytotoxic: C1CCCCCCCCCCC1
3.07% [at 18.9 µM] (inactive)
